System: UO-31 renal
assay: NCI-60 one-dose screen, 48 h (100 = growth as untreated, 0 = no growth, -100 = all killed)
studyConditions: 10 µM unless noted
Compounds without any hit were thinned out: in the full panel of roughly 83,000, 20% have a hit.
Give growth for every item shown.
Note: unit % is implicit; provide only the numeric part.

Challenge: What does the data say about its growth? Entry: COc1ccc2c(c1)O/C(=C/c1ccc(OCC(=O)Nc3ccc(S(N)(=O)=O)cc3)cc1)C2=O
Response given: 85.6

Challenge: What does the data say about its growth? Entry: CC(C)NCC(O)COc1ccc(CC(N)=O)cc1 (stereo not drawn)
Response given: 83.5

Challenge: What does the data say about its growth? Entry: CC(C)(C)C(=O)/C=c1/[nH]c(=O)/c(=C/c2ccccc2O)s1
Response given: 67.4

These measurements were taken from PubChem BioAssay (NCI).
